# Test system: UO-31
# assay: NCI tumour cell line growth inhibition, 48 h
Counter-ions that a name gives are not always drawn. Activity calls are given as the source filed them. No stated cut-off is given here; in the data, active = GI50 up to about 1.1 µM and inactive = higher.
Response enum: active, inactive

Query :: Hi, do you know how CC(=O)OCC1OC(OC2CC3C(C)(C)C(O)CC[C@]3(C)C3CCC45CC4(CC[C@H]5C(C)CC(O)C4OC4(C)C)[C@]23C)C(O)C(O)C1O (some centres not stated) came out in this test?
Result :: inactive

Query :: Lookup `Cc1[nH]c2ncn(/N=C/c3ccccc3)c(=N)c2c1Cc1ccccc1`
Result :: inactive

Query :: Lookup O[C@]12c3ccccc3C1CCCCC2N1CCOCC1 (some centres not stated)
Result :: inactive

Query :: Lookup `N#CCCN(c1ccc(/C=N/c2cccc([N+](=O)[O-])c2)cc1)S(=O)(=O)c1ccccc1`
Result :: inactive

Query :: Lookup `CNc1ccc(C)cc1S(=O)(=O)c1ccccc1[N+](=O)[O-]`
Result :: inactive

Query :: Lookup CC(=O)OC12CC(C(F)(F)F)(C(F)(F)F)OC1(OC(C)=O)CC(C(F)(F)F)(C(F)(F)F)O2 (configuration not stated)
Result :: inactive

Query :: Lookup `O=[N+]([O-])/C(C(Cl)=C(Cl)Cl)=C(\Nc1cccc2ccccc12)n1nnc2ccccc21`
Result :: inactive

Query :: Lookup C/C(=N\NS(=O)(=O)c1ccc(C)cc1)C(CN1CCCCC1)C(c1ccccc1)c1c(O)c2ccccc2oc1=O (configuration not stated)
Result :: inactive

Query :: Lookup `CC(C)(C)c1cc(OCc2nnc3sc(-c4ccc(Cl)cc4)nn23)c(Cl)cc1OCc1nnc2sc(-c3ccc(Cl)cc3)nn12`
Result :: inactive

Query :: Lookup COC(=O)C1=C(C(=O)OC)C23CC4CCC2(C(=O)C1O3)C4(C)C (configuration not stated)
Result :: inactive

Query :: Lookup CC1CCCC2=C1C(c1ccc(Cl)cc1)n1c(s/c(=C\c3ccc(Cl)cc3)c1=O)=N2 (configuration not stated)
Result :: inactive

Query :: Lookup `CS(=O)(=O)Nc1ccc2c(c1)oc(=O)c1ccccc12`
Result :: inactive

Query :: Lookup `CSc1cc(-c2ccccn2)nc(-c2ccccn2)c1`
Result :: active

Query :: Lookup `C[C@]12C[C@H](c3ccccc3)Nc3ccccc3N1C(c1ccccc1)=NO2`
Result :: inactive

Query :: Lookup `CN1CCN(c2cc3nc4cc(O)cc(O)c4c(O)c3cc2N)CC1`
Result :: inactive

Query :: Lookup `Cc1cc(C)nc(NS(=O)(=O)c2ccc(Nc3c4ccccc4nc4c(C(=O)Nc5ccc(S(=O)(=O)Nc6cc(C)on6)cc5)ccc(Cl)c34)cc2)n1`
Result :: inactive

Query :: Lookup `N#Cc1ncn(-c2ccccc2)c1N`
Result :: inactive

Query :: Lookup `CN1C2CCC1CN(CCOC(c1ccc(F)cc1)c1ccc(F)cc1)C2`
Result :: inactive

Query :: Lookup CCCC#CC(O)(C(=O)OC1CCN(C)CC1)C1CCCCC1 (configuration not stated)
Result :: inactive

Query :: Lookup CNCCC=C1c2ccccc2CCc2ccccc21 [NORTRIPTYLINE HYDROCHLORIDE]
Result :: inactive

Query :: Lookup `COc1cc(/C=C2\C[C@H]3[C@@H]4CCC5=CC(=O)CC[C@]5(C)[C@H]4CC[C@]3(C)C2=O)cc(OC)c1OC`
Result :: inactive

Query :: Lookup `CCOc1ccnc2c(OC)c(C)c3nc4ccccc4nc3c12`
Result :: inactive
